What pKd was measured for each of the following?
systemUnderTest: T1, EcoNrdR (Escherichia coli, UniProt P0A8D0 1-149)
T1 sequence: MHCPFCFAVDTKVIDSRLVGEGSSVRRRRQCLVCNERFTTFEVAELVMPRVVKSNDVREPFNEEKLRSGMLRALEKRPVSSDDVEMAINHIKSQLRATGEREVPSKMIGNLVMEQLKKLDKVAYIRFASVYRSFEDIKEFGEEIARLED
protocol: MST; dATP + ATP; MST, temperature not stated. Lmo: 25 mM Bis-Tris propane pH 6.5, 100 mM KCl, 5 mM MgCl2, 5% glycerol, 1 mM DTT, 0.05% Tween 20, one nucleotide 1 mM or two at 0.5 mM each; Spn: 25 mM HEPES pH 7.2, 250 mM NaCl, 2.5 mM MgCl2, 15% glycerol, 2 mM DTT, 0.1 mg/mL BSA, 0.05% Tween 20, 0.5 mM ATP and/or dATP; Eco: 25 mM Tris pH 8.5, 100 mM NaCl, 7 mM MgCl2, 1 mM DTT, 0.025% Tween 20, 1 mM ATP + 1 mM dATP; …
conditionSummary: protein: recombinant; chain copies: 4; label: 5'-Cy5 sense; blunt
Give bare numbers, as −log10 of the molar value.

>  <binder>
Synt 27 bp spacer (dsDNA) DNA 1: GCCAAACACAACATCTAGTGGTTGGATAGCGTGAAGTTACCACCTAGCACACAACATCTAGTGGACCTC DNA 2: GAGGTCCACTAGATGTTGTGTGCTAGGTGGTAACTTCACGCTATCCAACCACTAGATGTTGTGTTTGGC

>  <recordedNumber>
7.57

$$$$
>  <binder>
Eco nrdHIEF box 2 duplicated (dsDNA) DNA 1: GTCTCCAACTACATCTAGTATGGTTGAATCTTTTTTCAACTACATCTAGTATCTCTG DNA 2: CAGAGATACTAGATGTAGTTGAAAAAAGATTCAACCATACTAGATGTAGTTGGAGAC

>  <recordedNumber>
7.00

$$$$
>  <binder>
Synt 19 bp spacer (dsDNA) DNA 1: GCCAAACACAACATCTAGTGGTTGGATAGCGTGAAGTAGCACACAACATCTAGTGGACCTC DNA 2: GAGGTCCACTAGATGTTGTGTGCTACTTCACGCTATCCAACCACTAGATGTTGTGTTTGGC

>  <recordedNumber>
6.22

$$$$
>  <binder>
Synt 25 bp spacer (dsDNA) DNA 1: GCCAAACACAACATCTAGTGGTTGGATAGCGTGAAGTTCACCTAGCACACAACATCTAGTGGACCTC DNA 2: GAGGTCCACTAGATGTTGTGTGCTAGGTGAACTTCACGCTATCCAACCACTAGATGTTGTGTTTGGC

>  <recordedNumber>
6.49

$$$$

// for each binder in input: emit pKd
1. Synt 18 bp spacer (dsDNA) DNA 1: GCCAAACACAACATCTAGTGGTTGGATAGCGTGAAGTGCACACAACATCTAGTGGACCTC DNA 2: GAGGTCCACTAGATGTTGTGTGCACTTCACGCTATCCAACCACTAGATGTTGTGTTTGGC
2. Synt 24 bp spacer (dsDNA) DNA 1: GCCAAACACAACATCTAGTGGTTGGATAGCGTGAATTCACCTAGCACACAACATCTAGTGGACCTC DNA 2: GAGGTCCACTAGATGTTGTGTGCTAGGTGAATTCACGCTATCCAACCACTAGATGTTGTGTTTGGC

[A]
1. 7.18
2. 6.85
